Reference source: patent US20230056497A1

# assay text: Pharmacokinetics (PK) profile, plasma concentration versus time
# Assay type: in vivo
# reported conditions: IP (intraperitoneal), 20 mg/kg, 0.157 h
property name: concentration at 0.157 h
Write the figure, then the unit, nothing else.

Problem: I'd like to know its concentration at 0.157 h. The compound in question is O=C(NCCc1cnc[nH]1)c1ccc(-c2ncc3cnc(-c4ccccc4)cn23)cc1
Solution: 7.89 µM

###

# assay text: Pharmacokinetics (PK) profile, plasma concentration versus time
# Assay type: in vivo
# reported conditions: PO (Per Os, oral), 30 mg/kg, 1.5 h
property name: concentration at 1.5 h (µM)
Expressed in µM, but write only the number.

Problem: I'd like to know its concentration at 1.5 h. The compound in question is O=C(NCCc1cnc[nH]1)c1ccc(-c2ncc3cnc(-c4ccccc4)cn23)cc1
Solution: 0.19
